# Lookup of reported remaining activity at 10 µM keyed by entry
- EXPERIMENTAL TARGET: BChE (Equus caballus)
- Sequence (P81908 whole entry): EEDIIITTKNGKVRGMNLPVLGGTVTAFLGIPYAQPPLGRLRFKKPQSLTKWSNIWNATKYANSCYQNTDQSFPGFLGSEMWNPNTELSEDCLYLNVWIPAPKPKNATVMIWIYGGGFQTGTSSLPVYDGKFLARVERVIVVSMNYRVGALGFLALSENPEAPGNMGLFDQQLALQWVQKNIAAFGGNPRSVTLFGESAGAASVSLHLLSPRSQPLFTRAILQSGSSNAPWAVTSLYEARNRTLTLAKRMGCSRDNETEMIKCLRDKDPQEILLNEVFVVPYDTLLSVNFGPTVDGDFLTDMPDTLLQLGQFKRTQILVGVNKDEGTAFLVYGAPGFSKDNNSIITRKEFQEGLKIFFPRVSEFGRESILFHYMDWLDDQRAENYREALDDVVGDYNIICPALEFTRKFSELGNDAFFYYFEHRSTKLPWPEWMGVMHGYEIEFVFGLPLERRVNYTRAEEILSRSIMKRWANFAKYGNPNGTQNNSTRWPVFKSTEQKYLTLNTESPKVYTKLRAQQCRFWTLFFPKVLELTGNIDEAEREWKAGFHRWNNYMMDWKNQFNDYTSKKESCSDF
- TEST PROTOCOL: biochemical
- CONDITION DETAILS: read-out: Residual activities (%) BChE (10 µM)
MEASURED ENDPOINT: remaining activity at 10 µM (%)

1. O=C(/C=C/c1ccc([N+](=O)[O-])cc1)c1ccc(N2CCOCC2)cc1 [MO7] :: 70.2
2. O=C(/C=C/c1ccc(Br)cc1)c1ccc(N2CCOCC2)cc1 [MO9] :: 70.2
3. CCc1ccc(/C=C/C(=O)c2ccc(N3CCOCC3)cc2)cc1 [MO6] :: 71
4. O=C(/C=C/c1ccc(O)cc1)c1ccc(N2CCOCC2)cc1 [MO2] :: 63.5
5. O=C(/C=C/c1ccc(Cl)cc1)c1ccc(N2CCOCC2)cc1 [MO8] :: 74.6
6. O=C(/C=C/c1ccccc1)c1ccc(N2CCOCC2)cc1 [MO1] :: 62.9
7. COc1ccc(/C=C/C(=O)c2ccc(N3CCOCC3)cc2)cc1 [MO3] :: 56.8
8. Cc1ccc(/C=C/C(=O)c2ccc(N3CCOCC3)cc2)cc1 [MO4] :: 80.3

---

- EXPERIMENTAL TARGET: MAO-B (Homo sapiens, UniProt P27338)
- Sequence (P27338 whole entry): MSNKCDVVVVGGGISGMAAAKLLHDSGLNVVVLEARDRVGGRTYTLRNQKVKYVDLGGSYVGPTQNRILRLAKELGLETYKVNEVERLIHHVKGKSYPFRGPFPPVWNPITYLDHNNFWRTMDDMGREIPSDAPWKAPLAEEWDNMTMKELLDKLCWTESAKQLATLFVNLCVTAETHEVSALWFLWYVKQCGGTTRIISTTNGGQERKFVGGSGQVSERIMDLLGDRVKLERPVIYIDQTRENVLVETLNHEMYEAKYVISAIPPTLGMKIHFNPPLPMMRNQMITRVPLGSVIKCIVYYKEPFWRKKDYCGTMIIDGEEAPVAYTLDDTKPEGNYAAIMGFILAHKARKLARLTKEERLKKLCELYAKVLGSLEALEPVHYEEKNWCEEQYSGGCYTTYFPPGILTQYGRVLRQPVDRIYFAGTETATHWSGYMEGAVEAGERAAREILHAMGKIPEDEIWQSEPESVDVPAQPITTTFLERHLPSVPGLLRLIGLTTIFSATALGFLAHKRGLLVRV
- TEST PROTOCOL: MAO-B inhibition assay (benzylamine substrate)
- Assay type: biochemical
- CONDITION DETAILS: selectivity for MAO-B over MAO-A
MEASURED ENDPOINT: SI = IC50 of MAO-A/IC50 of MAO-B

1) CCc1ccc(/C=C/C(=O)c2ccc(N3CCOCC3)cc2)cc1 :: 13.6
2) Cc1ccc(/C=C/C(=O)c2ccc(N3CCOCC3)cc2)cc1 :: 78.2
3) O=C(/C=C/c1ccc([N+](=O)[O-])cc1)c1ccc(N2CCOCC2)cc1 :: 28.4

---

Quick list: remaining activity at 10 µM per entry.
- EXPERIMENTAL TARGET: recombinant human MAO-A (Homo sapiens, UniProt P21397)
- Sequence (P21397 1-527): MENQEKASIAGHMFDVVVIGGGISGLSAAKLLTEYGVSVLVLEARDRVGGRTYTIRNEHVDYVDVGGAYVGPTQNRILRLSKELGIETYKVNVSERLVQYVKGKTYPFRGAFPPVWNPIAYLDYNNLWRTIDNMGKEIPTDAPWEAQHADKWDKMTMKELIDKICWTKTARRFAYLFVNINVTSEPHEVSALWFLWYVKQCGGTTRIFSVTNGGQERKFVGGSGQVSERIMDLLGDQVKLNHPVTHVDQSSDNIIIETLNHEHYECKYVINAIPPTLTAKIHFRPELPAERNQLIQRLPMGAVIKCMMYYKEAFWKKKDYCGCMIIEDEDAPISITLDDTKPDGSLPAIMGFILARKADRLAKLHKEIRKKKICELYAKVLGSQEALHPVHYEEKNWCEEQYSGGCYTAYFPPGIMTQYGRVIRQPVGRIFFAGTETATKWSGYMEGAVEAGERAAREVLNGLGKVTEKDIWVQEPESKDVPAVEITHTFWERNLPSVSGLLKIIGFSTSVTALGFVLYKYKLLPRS
- TEST PROTOCOL: MAO-A inhibition assay (kynuramine substrate)
- Assay type: biochemical
- CONDITION DETAILS: inhibitor 10 µM; mean ± SE; read-out: Residual activities (%) MAO-A (10 µM)
MEASURED ENDPOINT: remaining activity at 10 µM (%)

1. Cc1ccc(/C=C/C(=O)c2ccc(N3CCOCC3)cc2)cc1 :: 70.2
2. O=C(/C=C/c1ccc(Cl)cc1)c1ccc(N2CCOCC2)cc1 :: 83.7
3. O=C(/C=C/c1ccc(O)cc1)c1ccc(N2CCOCC2)cc1 :: 93.8
4. CCc1ccc(/C=C/C(=O)c2ccc(N3CCOCC3)cc2)cc1 :: 12.3
5. COc1ccc(/C=C/C(=O)c2ccc(N3CCOCC3)cc2)cc1 :: 91
6. O=C(/C=C/c1ccc(Br)cc1)c1ccc(N2CCOCC2)cc1 :: 79.8
